# experimental-system: Polyunsaturated fatty acid lipoxygenase ALOX15 (Oryctolagus cuniculus) (UniProt P12530)
# Sequence (P12530 whole entry, looked up): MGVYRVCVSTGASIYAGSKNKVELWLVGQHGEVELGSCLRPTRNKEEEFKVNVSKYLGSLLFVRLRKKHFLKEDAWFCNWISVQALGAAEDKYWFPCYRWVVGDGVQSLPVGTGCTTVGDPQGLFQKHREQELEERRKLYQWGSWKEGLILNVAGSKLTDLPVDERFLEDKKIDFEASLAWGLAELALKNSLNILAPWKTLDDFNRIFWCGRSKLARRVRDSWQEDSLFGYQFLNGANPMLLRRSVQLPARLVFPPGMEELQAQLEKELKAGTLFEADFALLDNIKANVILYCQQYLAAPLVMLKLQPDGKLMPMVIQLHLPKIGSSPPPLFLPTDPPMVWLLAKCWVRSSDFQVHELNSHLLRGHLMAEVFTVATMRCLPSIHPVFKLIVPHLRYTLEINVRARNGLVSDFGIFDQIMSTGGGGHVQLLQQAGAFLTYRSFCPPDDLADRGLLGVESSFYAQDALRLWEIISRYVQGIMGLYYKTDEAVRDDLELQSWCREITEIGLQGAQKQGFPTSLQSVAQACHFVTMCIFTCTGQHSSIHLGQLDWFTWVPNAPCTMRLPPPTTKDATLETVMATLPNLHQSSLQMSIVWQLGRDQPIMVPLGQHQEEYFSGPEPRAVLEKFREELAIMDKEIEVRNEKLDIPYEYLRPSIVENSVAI
# assay-protocol: Inhibition of rabbit reticulocyte 15-lipoxygenase by compound (30 uM)
readout-kind: inhibition (%)

>  <record-smiles>
O=C(Nc1ccc(/N=C(\S)Nc2ccc(O)c(O)c2)cc1)c1ccccc1O

>  <experimental-system>
Polyunsaturated fatty acid lipoxygenase ALOX15 (Oryctolagus cuniculus) (UniProt P12530)

>  <inhibition (%)>
103

$$$$

1 = CC1=C(C)C(=O)C(Cc2cccnc2)=C(C)C1=O
2 = O=C(CCc1ccc(NC(=O)c2ccccc2O)cc1)Nc1ccc(O)c(O)c1
Returns: the label, 1 or 2 , whose recorded inhibition is the lower number. Answer format: the label of the selected item.
1

###

# System: MAC16
# assay-protocol: Inhibitory activity against MAC16 cell lines
# Assay type: functional, cell-based
# condition-parameters: Mus musculus
pIC50: −log10 of the molar value.
readout-kind: pIC50

Record excerpt, results attached:
>  <record-smiles>
O=C(/C=C/c1ccc(NC(=O)c2ccccc2O)cc1)Nc1ccc(O)c(O)c1

>  <pIC50>
3.52

$$$$
>  <record-smiles>
CCCCCCCc1ccc(C(=O)Nc2ccc(O)c(O)c2)cc1

>  <pIC50>
6.00

$$$$

P = O=C(CCc1cccc(NC(=O)c2ccccc2O)c1)Nc1ccc(O)c(O)c1
Q = CC1=C(C)C(=O)C(Cc2cccnc2)=C(C)C1=O
Returns: the label, P or Q , whose recorded pIC50 is the lower number. Answer format: the label of the selected item.
Q

###

# experimental-system: Polyunsaturated fatty acid lipoxygenase ALOX15 (Oryctolagus cuniculus)
# assay-protocol: Inhibition of rabbit reticulocyte 15-lipoxygenase by compound (30 uM)
readout-kind: inhibition (%)

>  <record-smiles>
O=C(Nc1ccc(O)c(O)c1)c1ccc(NCc2ccccc2O)cc1

>  <value-reported>
103

$$$$
>  <record-smiles>
O=C(CCc1cccc(NC(=O)c2ccccc2O)c1)Nc1ccc(O)c(O)c1

>  <value-reported>
102

$$$$
>  <record-smiles>
O=C(Nc1ccc(O)c(O)c1)c1ccc(NC(=O)c2ccccc2O)cc1

>  <value-reported>
100

$$$$
>  <record-smiles>
O=C(Nc1ccc(NC(=O)c2ccccc2O)cc1)Nc1ccc(O)c(O)c1

>  <value-reported>
104

$$$$
>  <record-smiles>
O=C(/C=C/c1ccc(NC(=O)c2ccccc2O)cc1)Nc1ccc(O)c(O)c1

>  <value-reported>
102

$$$$
